- TARGET_ENTITY: recombinant human secretory phospholipase A2 (Homo sapiens)
- Sequence (P14555 21-144): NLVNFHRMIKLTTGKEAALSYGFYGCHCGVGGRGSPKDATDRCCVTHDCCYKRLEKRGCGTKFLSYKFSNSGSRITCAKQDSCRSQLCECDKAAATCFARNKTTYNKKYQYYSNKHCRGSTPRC
- RUN_DESCRIPTION: Inhibition test of human secretory phospholipase A2 (chromogenic assay, 96 well microtiterplate)
- RECORDED_CONDITIONS: sPLA2 50 ng/well, 40° C., 30 minutes, OD 405 nm, substrate 1,2-bis(heptanoylthio)-1,2-dideoxy-sn-glycero-3-phospholylcholine
OBSERVABLE: IC50 (nM)

Worked set:
* CCc1c(C(=O)C(N)=O)c2c(OCC(=O)O)nc(C)nn2c1Cc1ccccc1-c1ccccc1 | 8
* COC(=O)COc1nc(C)nn2c(Cc3ccccc3)c(C)c(C(=O)C(N)=O)c12 | 203
* CCc1c(C(=O)C(N)=O)c2c(OCC(=O)O)nc(C)nn2c1Cc1ccccc1 | 11
* CCc1c(C(=O)C(N)=O)c2c(OCC(=O)OC)nc(C)nn2c1Cc1ccccc1-c1ccccc1 | 607

1: Cc1nc(OCC(=O)O)c2c(C(=O)C(N)=O)c(C)c(Cc3ccccc3)n2n1
2: CCc1c(C(=O)C(N)=O)c2c(OCC(=O)OC)nc(C)nn2c1Cc1ccccc1
Problem: Which value of IC50 is smaller, the one for 1 or the one for 2 ? Lab log: write the label of the selected item as the result.
Solution: 1
(1: 13 nM, 2: 317 nM)
